experiment: Volume of distribution at steady state in Sprague-Dawley rat at 1 mg/kg, iv and 1 mg/kg, po; type: ADME, organism-based; settings: in vivo, read-out: Vdss

SMILES NOTATION: Cc1nc(N2CCN(C)CC2)c2nc(-c3ccccc3Cl)n([C@H](C)CO)c2n1
Vd, L/kg: 6

---

test: AUC in Beagle dog at 1 mg/kg, iv and 1 mg/kg, po; type: ADME, organism-based, Canis lupus familiaris; details: plasma

SMILES NOTATION: Cc1nc(N2CCN(C)CC2)c2nc(-c3ccccc3Cl)n([C@H](C)CO)c2n1
AUC, ng·h/mL: 437
